target: Gi2 (Bos taurus, UniProt A7MBH9); construct: trimeric Gi2 (i.e., Gi2 αβγ) purified from bovine brain to near homogeneity; from tissue; host or cells: bovine brain; assay: GTPγS binding, MIII-induced Gi2 activation; format: biochemical, bovine; conditions: 10 nM Gi2, 1 μM MIII, 5 min; read-out: IC50, attenuation of MIII-induced Gi2 activation
Sequence (A7MBH9 2-355 limits assumed): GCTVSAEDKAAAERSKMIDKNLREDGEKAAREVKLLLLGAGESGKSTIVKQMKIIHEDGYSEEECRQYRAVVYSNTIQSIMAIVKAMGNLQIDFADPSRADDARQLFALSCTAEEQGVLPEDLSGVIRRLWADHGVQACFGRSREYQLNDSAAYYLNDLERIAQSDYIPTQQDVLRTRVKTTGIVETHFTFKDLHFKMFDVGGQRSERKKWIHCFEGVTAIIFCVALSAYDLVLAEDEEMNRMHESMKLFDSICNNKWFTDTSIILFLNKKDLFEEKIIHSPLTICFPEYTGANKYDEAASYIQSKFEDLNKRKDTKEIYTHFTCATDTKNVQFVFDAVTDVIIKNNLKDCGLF
Sequence (P62871 2-340 partner limits assumed): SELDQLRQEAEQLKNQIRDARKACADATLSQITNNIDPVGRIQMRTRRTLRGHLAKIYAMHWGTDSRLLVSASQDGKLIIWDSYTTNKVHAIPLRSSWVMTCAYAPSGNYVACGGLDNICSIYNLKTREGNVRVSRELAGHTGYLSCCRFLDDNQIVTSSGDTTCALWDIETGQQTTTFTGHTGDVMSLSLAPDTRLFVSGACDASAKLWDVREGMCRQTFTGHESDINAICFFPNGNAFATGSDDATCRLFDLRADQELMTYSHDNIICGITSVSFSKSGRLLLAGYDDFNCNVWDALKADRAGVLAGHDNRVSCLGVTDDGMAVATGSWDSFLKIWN
Sequence (P63212 2-68 partner limits assumed): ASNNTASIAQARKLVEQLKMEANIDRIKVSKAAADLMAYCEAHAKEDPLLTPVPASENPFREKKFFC
Where no end group is shown, it is not given here.
property.name: pIC50
Please report pIC50 as the negative decimal logarithm of the molar concentration, giving only the number.

Endpoint output: pIC50 of DAVTDVIIKNNLKDC [ACGi2, DAVTDVIIKNNLKDC] . Value? 5.00
